Test system: KM12 colon
Experiment: NCI tumour cell line growth inhibition, 48 h
quantity_kind: GI50

COC1=C(C)C(=O)c2c(c(CCCl)c3n2CCC3OC(C)=O)C1=O (stereo not given) = 0.642 µM
COc1ccc(C2CC(c3ccc(Nc4ccnc5cc(Cl)ccc45)cc3)=NN2C=O)cc1 (stereo not given) = 16.5 µM
COc1cccc(-c2cc(=O)c3cc(N4CCOCC4)ccc3[nH]2)c1 = 0.0243 µM
CC(C)[C@@](O)(c1ccc2cc(OC(F)F)c(OC(F)F)cc2c1)c1cn[nH]n1 = 17.5 µM

Req: Look up GI50: COC(=O)[C@]12CC[C@@H](C)[C@H](C)[C@@H]1C1=CC[C@@H]3[C@@]4(C)C[C@@H](OC(=O)/C=C/c5ccccc5)[C@H](O)[C@@](C)(CO)[C@@H]4[C@H](O)C[C@@]3(C)[C@]1(C)CC2
Resp: 2.05 µM

====

Test system: SK-MEL-5 melanoma
Experiment: NCI tumour cell line growth inhibition, 48 h
quantity_kind: TGI

COc1ccc(CCN(CC(=O)N(CC(N)=O)C2CCC[C@@H]2OCc2ccccc2)C(=O)CN(C(=O)CN(CCc2ccc(Cl)cc2)C(=O)CN(C(=O)CN(C)Cc2ccccc2F)[C@H](C)C2CCCCC2)[C@H](C)C2CCCCC2)cc1OC (some centres undefined) = 8.62 µM
C=C(C)[C@@H]1CCC2=C[C@H](C/C(C)=C\C3=CC(C)=C(O3)[C@H]1O)OC2=O = > 100 µM
C/C(N)=C/C(=O)c1[nH]c(C(=O)O)cc1C1CCN(Cc2ccccc2)C1=O (centres undefined) = 33.8 µM

For the next question, use this compound.
Req: Tell me the measured TGI of CCc1n[nH]c(=O)n1/N=C(\C)c1ccc([N+](=O)[O-])cc1 , please.
Resp: > 100 µM

====

Tested on: MALME-3M melanoma
Experiment: NCI tumour cell line growth inhibition, 48 h
quantity_kind: TGI

Look over these answered cases.
Cc1cnc2oc3ccc(O)cc3c2c1-c1ccccc1 = > 100 µM
CC(=O)NC(Cc1ccccc1)NC(=O)O (stereo unspecified) = > 100 µM
CCC1C(C(=O)Nc2ccccc2C)=C(C)NC(C)=C1c1ccccc1C (stereo unspecified) = > 100 µM
C=CC(=O)NC(N)=NC#N = 303 µM
O=[N+]([O-])c1ccc(N/N=C2/CC3=C2CCCCCCCCCC3)c([N+](=O)[O-])c1 = > 100 µM
CC1C2CC(CC2(C)O)C1(C)C (stereo unspecified) = > 100 µM

Req: Entry c1cc2nnsc2s1 has what TGI?
Resp: > 100 µM

Req: Using the record for COc1ccc(NC(C)=O)cc1N1C(=O)/C(=C\c2ccccc2)SC1c1cc(OC)c(OC)c(OC)c1 (stereo unspecified) , report its TGI.
Resp: 56.2 µM

Req: Reported TGI for COc1ccc(N2C(=O)C3c4[nH]c5ccccc5c4C4CC(C)(C)CC(C)(C)C4C3C2=O)cc1 (stereo unspecified) : what is it?
Resp: 36.3 µM

Req: For O=C(NC(Cc1ccc(Br)cc1)C(=O)O)c1ccc(I)cc1 (stereo unspecified) , what is its reported TGI?
Resp: > 100 µM

Req: Reported TGI, compound COc1cc(/C=N/c2nc3cc4sc(/N=C/c5cc(OC)c(OC)c(OC)c5)nc4cc3s2)cc(OC)c1OC : ____
Resp: > 100 µM

Req: Quick one: TGI of O=C(NCCC1CN(C(=O)OCc2ccccc2)c2ccccc21)OCc1ccccc1 (stereo unspecified) ?
Resp: > 100 µM

Req: What value of TGI has been recorded for this entry: CC(C)(C)C1CCC2c3c([nH]c4ccccc34)C3C(=O)N(c4ccccc4[N+](=O)[O-])C(=O)C3C2C1 (stereo unspecified)
Resp: 43 µM

Req: Item O=C(O)CC(NC(=O)/C(=C/c1ccccc1)NC(=O)c1ccccc1)C(=O)O (stereo unspecified) has what recorded TGI?
Resp: > 100 µM

Req: Given the compound CN(Cc1cn(O)c2nc(=N)nc(N)c-2n1)c1ccc(C(=O)NC23CC4CC(CC(C4)C2)C3)cc1 , what is its reported TGI?
Resp: > 100 µM

Req: Please look up its TGI: CC(C)(C)c1cc(CCCCCCCC2(CCCCCCCc3cc(C(C)(C)C)cc(C(C)(C)C)c3)OC(COCCOCCCCCC#N)C(COCCOCCCCCC#N)O2)cc(C(C)(C)C)c1 (stereo unspecified)
Resp: > 100 µM

Req: What does the data say about its TGI? Entry: Cc1ccc(C=C2C(Cl)=C(Cl)C(Cl)=C2Cl)cc1
Resp: 2.62 µM

Req: Name the recorded TGI for OCC(O)CNc1ncnc2ccccc12 (stereo unspecified) .
Resp: > 100 µM

====

Test system: UACC-62 melanoma
Experiment: NCI tumour cell line growth inhibition, 48 h
Could you label it yes if measured TGI is 20 µM or higher, and no otherwise?

Req: Dear colleague, could you confirm whether O=C(OCCCl)C1OC(n2cc(F)c(=O)[nH]c2=O)CC1O (stereo not given) has TGI at or above 20 µM?
Resp: yes

Req: Threshold query (TGI >= 20 µM) on CN(C)CCC(CCN(C)C)=NO
Resp: yes

Req: Threshold query (TGI >= 20 µM) on C=CC(=O)NC(N)=NC#N
Resp: yes

Req: # bool: TGI of C=C1C(=O)O[C@@H]2/C=C(\C)CC/C=C(\C)CC[C@@]12O >= 20 µM
Resp: yes

Req: For this compound, is measured TGI 20 µM or higher? COC1(C)C(=O)N2C1N(C(=O)OC(C)(C)C)CC2(C)C (stereo not given)
Resp: yes

Req: # check: TGI of CCCCCCCCCCCCCC1=C(O)C(=O)C(CC2=C(O)C(=O)C(CCCCCCCCCCCCC)=C(O)C2=O)=C(O)C1=O is greater than or equal to 20 µM
Resp: yes

Req: Assess whether reported TGI for CN(C)CC(=O)Nc1ccc2ncnc(Nc3ccc(Oc4cccc(C(F)(F)F)c4)c(Cl)c3)c2c1 sits at 20 µM or higher.
Resp: no

Req: Can COC(=O)c1ccc(/C=C(\c2ccc([N+](=O)[O-])o2)S(=O)(=O)c2ccc(NC(C)=O)cc2)o1 be said to have TGI at or above 20 µM?
Resp: no

Req: Does the compound CC(C)(C)CC(C)(C)c1ccc(O)c(Cc2ccc(Cl)cc2Cl)c1 have recorded TGI that is 20 µM or more?
Resp: no

Req: State whether the measured TGI reaches 20 µM, counting equality as reaching it, for S=c1c2[nH]cnc2ncn1CCSC1=NC=NC2=NC=NC21 (stereo not given)
Resp: yes

====

Tested on: A549 NSCLC
Test: NCI tumour cell line growth inhibition, 48 h; in the data active means GI50 below about 0.43 µM; inactive means the rest
The reply should be one of these categories: 1 for active, -1 for inactive

Examples with answers:
COc1ccc(NC2=C(I)C(=O)c3ncccc3C2=O)cc1 = -1
COc1ccc(/C=C2\COc3ccc(O)c(O)c3C2=O)c(OC)c1OC = -1
COC(=O)c1cc2oc(/C=C3/SC(=S)N(N)C3=O)cc2n1Cc1ccccc1 = -1
COc1ccc(C(=NN=C(N)N)c2ccc(OC)cc2)cc1 = -1
COc1cccc(-c2cc(=O)c3cc(N4CCOCC4)ccc3[nH]2)c1 = 1
CCN(CC)CC[n+]1ccc2c(C)c3[nH]c4ccc(O)cc4c3c(C)c2c1 = -1
CC[C@@]1(O)C(=O)OCc2c1cc1n(c2=O)Cc2cc3ccccc3nc2-1 = 1

Consider now this further molecule.
Req: Per the records of this test, what outcome belongs to O=c1cnnc(N/N=C/c2ccccc2O)[nH]1 ?
Resp: -1

====

Test system: MALME-3M melanoma
Assay: NCI tumour cell line growth inhibition, 48 h; in the data active = GI50 below about 0.43 µM; inactive = the rest
# output must be one of True for active, False for inactive

Take a look at these entries with their results.
COc1cc(-c2nc3sc(C)cn3c2/C=C2\C(=O)Nc3ccccc32)c(Br)c(OC)c1OC = False
C=CC(=O)N1C[C@@H]2CCOc3c(Cl)c(-c4c(O)cccc4F)c(F)c4ncnc(c34)N2C[C@H]1C = False
COc1cc(/C=C2\CCC/C(=C\c3ccc(O)c(OC)c3)C2=O)ccc1O = True
CC(C)(c1ccccc1)c1cc(O)c(C(C)(C)c2ccccc2)cc1O = False
N#Cc1c(NC(=O)c2ccc(F)cc2)sc2c1CCCC2 = False

Req: Which outcome was assigned to CCN(CC)CC[n+]1ccc2c(C)c3[nH]c4ccc(O)cc4c3c(C)c2c1 in this test?
Resp: False

Req: Can you look up the reported call for CC(=O)CC/C=C(\C)[C@H](O)[C@H](C)C(=O)O[C@H]1C[C@H](C)C=C2C=C[C@@]3(C)O[C@@H](O)CC(=O)[C@]3(C)[C@H]21 for me?
Resp: False

Req: Please let me know the test result on file for COC1=C(C)C(=O)c2c(c(CCCl)c3n2CCC3OC(C)=O)C1=O (stereo unspecified) .
Resp: True

Req: Hi team, can someone confirm the assay call for O=[N+]([O-])c1ccc(C(Cl)C(Cl)c2ccc(C(Cl)C(Cl)c3ccc([N+](=O)[O-])cc3[N+](=O)[O-])cc2)c([N+](=O)[O-])c1 (stereo unspecified) ?
Resp: True

Req: Returns: the outcome recorded for COc1cc([N+](=O)[O-])c(OC)cc1-c1nc2sc(C)cn2c1/C(N)=N/C(=N)N in this assay.
Resp: False

Req: Name the outcome recorded for COc1ccc(NC2=C(I)C(=O)c3ncccc3C2=O)cc1 in the assay.
Resp: False
